system: K4 kissing-loop RNA reporter; experiment: apparent KD of K4 kissing-loop reporter; higher = weaker reporter binding; conditions: Eterna round: R107; input ligand: arginine 13.2 mM
The reader will find reported apparent KD of K4 kissing-loop reporter values listed item by item below.
Report only the number, with the unit nM understood.

Example results:
CCAUUCUUUUACGAUACCAGUUUAAUAUAUUUAAUCAAAACCCUCGCCGAGUGAUGUUCGGACCCUUGGCAGCGUUUGCGAGAGG [bjnbstkmullin]; 291
GGAUAUGUAACAGAUACCAGCCGACGACAGUCACUGUGUCAUGUAGUGAUGUUACAAUCUGGCCCUUGGCAGCUGUCUCUGGUUU [theeternabot_exclusion_KL_Theo_B_27]; 214
CGUGAGUGAUGUUCACGAGGCUUGUUUCUAGAGGAUAUUCACUUUAGAAGAAGGCUAGAGAUCUAUAUCGUGAUGCUCGAUAACG [FMN A Ex t1]; 247
AGUACGGACGCGGCCGCCACUCAGGAGAAGAAGGUAGUGAUGUUGCUUAUGGAGAGAUCAAUCAAGAGGACCGGGUGCCGUGCAA [#07 K4 Tryptophan B Same State]; 340
AGCAAUAUCACGGCCGCCACUGAUUAUUGUUUUUAUAGUUAUAAAUCUUGCCAGUGAUGUUGGUUCAGGACCGGGUGAGUUAAUA [JR_SSTryptoB_Sub002]; 565

For the next question, use this sequence.
Give the reported apparent KD of K4 kissing-loop reporter for GGAUAGGACAGAGGAUAUGGUAGUGAUGUUACCAAACUGGUUAUUAAUGUCAGAAAACUGGCAAAUCCAGAAGGCUGUCCUAUCG [KL-XFMN-B13] (system: K4 kissing-loop RNA reporter).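 Also: bound reporter read as fluorescence of individual clusters on recovered sequencing chips by microscopy, with normalized cluster intensities fitted with a binding model.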
63.8
